test system: MCF-7; assay: Two-dose antiproliferative screening, SRB assay, MCF-7; format: cell-based; conditions: Homo sapiens, MCF7, 72 h, 1 μM, triplicates, read-out: Growth Inhibition (%) MCF-7 1 μM Average
MEASURED PROPERTY: inhibition at 1 µM (%)

| COMPOUND | SYSTEM | MEASURED PROPERTY | TEST VALUE |
| --- | --- | --- | --- |
| COc1cc(OC)c(/C=C2/C(=O)N(Cc3ccc(Cl)cc3)c3ccccc32)c(OC)c1 | MCF-7 | inhibition at 1 µM | 3.81 |
| COc1cc(/C=C2/C(=O)N(Cc3ccccc3)c3cc(Cl)ccc32)cc(OC)c1OC | MCF-7 | inhibition at 1 µM | 0.68 |
| CCOC(=O)CN1C(=O)/C(=C/c2cc(OC)c(OC)c(OC)c2)c2ccc(Cl)cc21 | MCF-7 | inhibition at 1 µM | 2.3 |
| COc1cc(OC)c(/C=C2/C(=O)N(Cc3ccc(F)cc3)c3cc(Cl)ccc32)c(OC)c1 | MCF-7 | inhibition at 1 µM | 10.3 |
| COc1cc(OC)c(/C=C2/C(=O)N(Cc3ccccc3)c3cc(Cl)ccc32)c(OC)c1 | MCF-7 | inhibition at 1 µM | 0.49 |
| COc1cc(OC)c(/C=C2/C(=O)Nc3ccc(OC)cc32)c(OC)c1 | MCF-7 | inhibition at 1 µM | 34.5 |
| COc1cc(OC)c(/C=C2/C(=O)Nc3cc(Cl)ccc32)c(OC)c1 | MCF-7 | inhibition at 1 µM | 46 |
| COc1cc(/C=C2/C(=O)N(Cc3ccc(F)cc3)c3ccccc32)cc(OC)c1OC | MCF-7 | inhibition at 1 µM | 5.68 |
| COc1cc(OC)c(/C=C2/C(=O)N(Cc3ccc(F)cc3)c3ccccc32)c(OC)c1 | MCF-7 | inhibition at 1 µM | 4.08 |
| COc1ccc2c(c1)/C(=C\c1cc(OC)c(OC)c(OC)c1)C(=O)N2 | MCF-7 | inhibition at 1 µM | 21 |
| COc1cc(/C=C2/C(=O)Nc3ccccc32)cc(OC)c1OC | MCF-7 | inhibition at 1 µM | 1.17 |
| COc1cc(OC)c(/C=C2/C(=O)N(Cc3ccc(Cl)cc3)c3cc(Cl)ccc32)c(OC)c1 | MCF-7 | inhibition at 1 µM | 1.59 |
| COc1cc(/C=C2/C(=O)Nc3ccc(F)cc32)cc(OC)c1OC | MCF-7 | inhibition at 1 µM | 0.98 |
| COc1cc(/C=C2/C(=O)N(Cc3ccc(Cl)cc3)c3cc(Cl)ccc32)cc(OC)c1OC | MCF-7 | inhibition at 1 µM | 3.69 |
| COc1cc(/C=C2/C(=O)N(CC(=O)OC(C)(C)C)c3cc(Cl)ccc32)cc(OC)c1OC | MCF-7 | inhibition at 1 µM | 2.11 |
| COc1cc(OC)c(/C=C2/C(=O)Nc3ccc(Cl)cc32)c(OC)c1 | MCF-7 | inhibition at 1 µM | 17.9 |
| COc1cc(OC)c(/C=C2/C(=O)Nc3ccc(F)cc32)c(OC)c1 | MCF-7 | inhibition at 1 µM | 10 |
| COc1cc(/C=C2/C(=O)N(Cc3ccc(F)cc3)c3cc(Cl)ccc32)cc(OC)c1OC | MCF-7 | inhibition at 1 µM | 3.56 |
| COc1cc(OC)c(/C=C2/C(=O)Nc3ccccc32)c(OC)c1 [Compound 4a, reference compound] | MCF-7 | inhibition at 1 µM | 44 |
| COc1cc(/C=C2/C(=O)Nc3cc(Cl)ccc32)cc(OC)c1OC | MCF-7 | inhibition at 1 µM | 1.14 |
| COc1cc(OC)c(/C=C2/C(=O)N(Cc3ccccc3)c3ccccc32)c(OC)c1 | MCF-7 | inhibition at 1 µM | 0.6 |
| COc1cc(/C=C2/C(=O)Nc3ncccc32)cc(OC)c1OC | MCF-7 | inhibition at 1 µM | 0.36 |
| COc1cc(/C=C2/C(=O)N(Cc3ccccc3)c3ccccc32)cc(OC)c1OC | MCF-7 | inhibition at 1 µM | 1.74 |
| COc1cc(/C=C2/C(=O)N(Cc3ccc(Cl)cc3)c3ccccc32)cc(OC)c1OC | MCF-7 | inhibition at 1 µM | 1.13 |
| COc1cc(/C=C2/C(=O)Nc3ccc(Cl)cc32)cc(OC)c1OC | MCF-7 | inhibition at 1 µM | 1.06 |
| COc1cc(OC)c(/C=C2/C(=O)Nc3ncccc32)c(OC)c1 | MCF-7 | inhibition at 1 µM | 11.5 |

----------
system: PC-3; test: Two-dose antiproliferative screening, SRB assay, PC-3; format: cell-based; details: Homo sapiens, PC-3, 72 h, 10 μM, triplicates, read-out: Growth Inhibition (%) PC-3 10 μM Average
Outcome label depends on inhibition at 10 µM relative to 10%: at/above gives Fulfilled, below gives Not fulfilled.

| COMPOUND | SYSTEM | LABEL |
| --- | --- | --- |
| COc1cc(OC)c(/C=C2/C(=O)Nc3ncccc32)c(OC)c1 | PC-3 | Fulfilled |
| COc1cc(OC)c(/C=C2/C(=O)N(Cc3ccc(F)cc3)c3cc(Cl)ccc32)c(OC)c1 | PC-3 | Not fulfilled |
| COc1cc(OC)c(/C=C2/C(=O)N(Cc3ccccc3)c3ccccc32)c(OC)c1 | PC-3 | Not fulfilled |
| COc1cc(/C=C2/C(=O)Nc3ccc(Cl)cc32)cc(OC)c1OC | PC-3 | Fulfilled |
| COc1cc(OC)c(/C=C2/C(=O)Nc3cc(Cl)ccc32)c(OC)c1 | PC-3 | Fulfilled |
| COc1cc(OC)c(/C=C2/C(=O)N(Cc3ccc(F)cc3)c3ccccc32)c(OC)c1 | PC-3 | Fulfilled |
| COc1cc(/C=C2/C(=O)N(Cc3ccc(Cl)cc3)c3ccccc32)cc(OC)c1OC | PC-3 | Fulfilled |
| COc1cc(/C=C2/C(=O)N(Cc3ccc(F)cc3)c3ccccc32)cc(OC)c1OC | PC-3 | Not fulfilled |
| CCOC(=O)CN1C(=O)/C(=C/c2cc(OC)c(OC)c(OC)c2)c2ccc(Cl)cc21 | PC-3 | Fulfilled |
| COc1cc(OC)c(/C=C2/C(=O)Nc3ccc(F)cc32)c(OC)c1 | PC-3 | Fulfilled |
| COc1cc(/C=C2/C(=O)Nc3cc(Cl)ccc32)cc(OC)c1OC | PC-3 | Fulfilled |
| COc1cc(/C=C2/C(=O)N(Cc3ccc(F)cc3)c3cc(Cl)ccc32)cc(OC)c1OC | PC-3 | Fulfilled |
| COc1cc(/C=C2/C(=O)N(Cc3ccccc3)c3cc(Cl)ccc32)cc(OC)c1OC | PC-3 | Not fulfilled |
| COc1cc(OC)c(/C=C2/C(=O)Nc3ccccc32)c(OC)c1 [Compound 4a, reference compound] | PC-3 | Fulfilled |
| COc1cc(/C=C2/C(=O)Nc3ncccc32)cc(OC)c1OC | PC-3 | Not fulfilled |
| COc1cc(/C=C2/C(=O)N(Cc3ccc(Cl)cc3)c3cc(Cl)ccc32)cc(OC)c1OC | PC-3 | Not fulfilled |

----------
tested on: PC-3; experiment: Two-dose antiproliferative screening, SRB assay, PC-3; assay type: cell-based; conditions: Homo sapiens, PC-3, 72 h, 1 μM, triplicates, read-out: Growth Inhibition (%) PC-3 1 μM Average
Outcome label depends on inhibition at 1 µM relative to 4%: at/above gives t, below gives f.

| SMILES STRING | LABEL |
| --- | --- |
| COc1cc(/C=C2/C(=O)Nc3ccccc32)cc(OC)c1OC | f |
| COc1ccc2c(c1)/C(=C\c1cc(OC)c(OC)c(OC)c1)C(=O)N2 | t |
| COc1cc(OC)c(/C=C2/C(=O)Nc3ncccc32)c(OC)c1 | t |
| COc1cc(OC)c(/C=C2/C(=O)Nc3ccc(Cl)cc32)c(OC)c1 | t |
| COc1cc(/C=C2/C(=O)N(Cc3ccc(F)cc3)c3ccccc32)cc(OC)c1OC | f |
| COc1cc(/C=C2/C(=O)N(Cc3ccccc3)c3cc(Cl)ccc32)cc(OC)c1OC | t |
| COc1cc(OC)c(/C=C2/C(=O)Nc3ccc(F)cc32)c(OC)c1 | t |
| COc1cc(/C=C2/C(=O)N(Cc3ccc(Cl)cc3)c3ccccc32)cc(OC)c1OC | f |
| COc1cc(/C=C2/C(=O)N(Cc3ccc(Cl)cc3)c3cc(Cl)ccc32)cc(OC)c1OC | f |

----------
Here, each record is paired with measured inhibition at 1 µM data.
system: PC-3; test: Two-dose antiproliferative screening, SRB assay, PC-3; type: cell-based; details: Homo sapiens, PC-3, 72 h, 1 μM, triplicates, read-out: Growth Inhibition (%) PC-3 1 μM Average

| MOLECULE | inhibition at 1 µM / % |
| --- | --- |
| COc1cc(OC)c(/C=C2/C(=O)N(Cc3ccccc3)c3ccccc32)c(OC)c1 | 0.65 |
| COc1cc(/C=C2/C(=O)Nc3ccc(Cl)cc32)cc(OC)c1OC | 1.42 |
| COc1cc(/C=C2/C(=O)N(Cc3ccccc3)c3ccccc32)cc(OC)c1OC | 4.3 |
| COc1cc(OC)c(/C=C2/C(=O)Nc3cc(Cl)ccc32)c(OC)c1 | 65 |
| COc1cc(/C=C2/C(=O)Nc3ccc(F)cc32)cc(OC)c1OC | 2.02 |
| COc1cc(OC)c(/C=C2/C(=O)N(Cc3ccccc3)c3cc(Cl)ccc32)c(OC)c1 | 1.47 |
| COc1cc(OC)c(/C=C2/C(=O)N(Cc3ccc(Cl)cc3)c3ccccc32)c(OC)c1 | 1.05 |
| COc1cc(OC)c(/C=C2/C(=O)N(Cc3ccc(F)cc3)c3ccccc32)c(OC)c1 | 0.89 |
| COc1cc(OC)c(/C=C2/C(=O)Nc3ccccc32)c(OC)c1 [Compound 4a, reference compound] | 60 |
| COc1cc(OC)c(/C=C2/C(=O)N(Cc3ccc(F)cc3)c3cc(Cl)ccc32)c(OC)c1 | 0.75 |
| COc1cc(/C=C2/C(=O)Nc3ncccc32)cc(OC)c1OC | 1.29 |
| COc1cc(/C=C2/C(=O)Nc3cc(Cl)ccc32)cc(OC)c1OC | 7.69 |
| COc1cc(/C=C2/C(=O)N(Cc3ccc(F)cc3)c3cc(Cl)ccc32)cc(OC)c1OC | 0.4 |
| COc1cc(OC)c(/C=C2/C(=O)Nc3ccc(OC)cc32)c(OC)c1 | 43 |
| COc1cc(OC)c(/C=C2/C(=O)N(Cc3ccc(Cl)cc3)c3cc(Cl)ccc32)c(OC)c1 | 1.77 |
| COc1cc(/C=C2/C(=O)N(CC(=O)OC(C)(C)C)c3cc(Cl)ccc32)cc(OC)c1OC | 1.19 |
| CCOC(=O)CN1C(=O)/C(=C/c2cc(OC)c(OC)c(OC)c2)c2ccc(Cl)cc21 | 1.66 |
